All figures here come from the supplement of paper PMC10567573.

B1: EPB41L3 (parent)
chain: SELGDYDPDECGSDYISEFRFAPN

# Variants of: B1
# Assay comment: protein stability index of a GFP-peptide fusion (GPS, HEK-293T) (PSI 1-6); higher = more stable;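 further: lentivirally expressed fusions sorted by FACS into six bins by GFP to DsRed ratio, PSI derived from sequencing read proportions per bin multiplied by bin number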
# Condition description: c terminus: a fixed tail appended
Exercise: state measured protein stability index for each of the variants provided.
Answers are plain numbers.

Consider the worked cases shown below.
S1I: 1.71
F21M: 4.43
D7M: 1.93
P8Y: 1.82
F21S: 5.07

Can you give me protein stability index for all of these, one by one?
1. P8Q
2. G4A
3. C11S
4. A22E
5. C11L

Reply text:
[2.03, 2.56, 2.51, 4.24, 2.06]
